measurement target: Nav 1.7 (Homo sapiens (Human))
Sequence (Q15858 whole entry): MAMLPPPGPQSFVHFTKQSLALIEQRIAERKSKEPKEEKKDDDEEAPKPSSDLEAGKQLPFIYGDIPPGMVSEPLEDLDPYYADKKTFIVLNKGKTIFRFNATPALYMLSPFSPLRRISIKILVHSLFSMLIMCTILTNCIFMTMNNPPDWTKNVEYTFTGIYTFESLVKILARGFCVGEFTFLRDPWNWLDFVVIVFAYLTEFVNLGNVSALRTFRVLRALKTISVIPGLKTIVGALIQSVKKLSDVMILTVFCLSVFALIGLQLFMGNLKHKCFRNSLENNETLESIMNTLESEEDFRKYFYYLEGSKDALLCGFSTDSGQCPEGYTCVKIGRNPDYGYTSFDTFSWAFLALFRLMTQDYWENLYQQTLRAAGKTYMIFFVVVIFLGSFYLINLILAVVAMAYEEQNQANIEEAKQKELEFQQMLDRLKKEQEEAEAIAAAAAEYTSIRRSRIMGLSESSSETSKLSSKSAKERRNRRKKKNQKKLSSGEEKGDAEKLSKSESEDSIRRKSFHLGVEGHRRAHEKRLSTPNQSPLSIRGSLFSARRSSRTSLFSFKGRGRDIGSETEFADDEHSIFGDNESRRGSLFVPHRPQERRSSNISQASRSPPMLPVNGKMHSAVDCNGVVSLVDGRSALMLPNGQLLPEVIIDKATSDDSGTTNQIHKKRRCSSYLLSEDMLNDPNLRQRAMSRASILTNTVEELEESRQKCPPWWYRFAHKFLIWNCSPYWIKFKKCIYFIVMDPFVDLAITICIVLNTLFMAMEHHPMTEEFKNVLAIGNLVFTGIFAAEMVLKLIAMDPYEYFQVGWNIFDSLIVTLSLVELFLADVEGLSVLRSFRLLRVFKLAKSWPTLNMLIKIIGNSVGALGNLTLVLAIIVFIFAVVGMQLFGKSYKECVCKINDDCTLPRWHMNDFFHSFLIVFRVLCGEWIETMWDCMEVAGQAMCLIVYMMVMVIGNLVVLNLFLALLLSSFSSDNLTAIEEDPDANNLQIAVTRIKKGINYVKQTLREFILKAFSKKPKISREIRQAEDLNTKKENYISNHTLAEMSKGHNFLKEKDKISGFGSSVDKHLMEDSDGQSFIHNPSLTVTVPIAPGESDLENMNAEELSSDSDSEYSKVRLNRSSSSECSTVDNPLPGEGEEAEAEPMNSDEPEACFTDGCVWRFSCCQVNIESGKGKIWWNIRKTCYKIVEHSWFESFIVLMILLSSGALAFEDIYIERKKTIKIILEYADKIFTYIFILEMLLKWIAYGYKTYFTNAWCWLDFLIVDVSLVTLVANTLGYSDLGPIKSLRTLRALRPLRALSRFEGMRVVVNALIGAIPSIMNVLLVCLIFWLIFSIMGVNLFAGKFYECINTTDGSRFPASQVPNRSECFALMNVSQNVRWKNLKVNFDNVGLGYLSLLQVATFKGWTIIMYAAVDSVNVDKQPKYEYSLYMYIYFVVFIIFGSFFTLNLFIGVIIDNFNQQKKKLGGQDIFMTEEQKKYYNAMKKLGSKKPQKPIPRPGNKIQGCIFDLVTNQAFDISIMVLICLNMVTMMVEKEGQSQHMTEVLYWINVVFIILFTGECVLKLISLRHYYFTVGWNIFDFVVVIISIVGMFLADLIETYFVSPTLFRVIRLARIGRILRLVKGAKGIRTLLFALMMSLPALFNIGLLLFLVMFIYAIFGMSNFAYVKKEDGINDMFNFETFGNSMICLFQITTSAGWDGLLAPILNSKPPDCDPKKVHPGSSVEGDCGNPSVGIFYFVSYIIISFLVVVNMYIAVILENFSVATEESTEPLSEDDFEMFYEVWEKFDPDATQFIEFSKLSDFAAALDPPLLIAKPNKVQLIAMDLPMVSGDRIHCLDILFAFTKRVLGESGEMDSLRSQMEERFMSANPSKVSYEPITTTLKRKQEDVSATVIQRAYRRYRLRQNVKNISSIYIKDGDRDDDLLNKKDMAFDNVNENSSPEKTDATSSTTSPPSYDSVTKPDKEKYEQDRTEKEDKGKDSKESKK
assay details: Nav 1.7 in vitro PX assay (PatchXpress whole cell voltage clamp);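 note: holding potential set for 20 to 50% inactivation, sodium current evoked by a 20 ms step to −10 mV, peak current inhibition read after compound exposure, 3–5 cells per concentration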
Format: cell-based
protocol conditions: HEK 293 cells stably transfected with human Nav1.7; PatchXpress; partially inactivated state
pIC50: −log10 of the molar value.
List of pIC50 values.
reported property: pIC50

> print(dat)
                                    molecule  value.measured
 1  COc1cc(-c2cccc(F)c2)c(Cl)cc1-c1c(C#N)cnc2cc(S(=O)(=O)Nc3ccon3)ccc12 (atropisomer, axis not shown; (M)) [Example 334]            7.00
 2  COc1cc(-c2cccc(F)c2)c(Cl)cc1-c1c(N)cnc2cc(S(=O)(=O)Nc3ccon3)ccc12            7.46
 3  COc1cc(Cl)cc(-c2cc(OC)c(-c3ncnc4cc(S(=O)(=O)Nc5ccon5)ccc34)cc2F)c1            7.44
 4  COc1cc(-c2cccc(F)c2)c(Cl)cc1-c1c(OC)cnc2cc(S(=O)(=O)Nc3ccon3)ccc12 (atropisomer, axis not shown; (P)) [Example 340]            7.08
 5  COc1cc(-c2cccc(F)c2)c(Cl)cc1-c1c(C)ncc2cc(S(=O)(=O)Nc3ccon3)ccc12 (atropisomer, axis not shown; (P)) [Example 318]            5.86
 6  COc1cc(F)c(-c2ccc(F)nc2)cc1-c1nccc2cc(S(=O)(=O)Nc3ccon3)ccc12            6.32
 7  COc1cc(-c2cc(F)cc(F)c2)c(Cl)cc1-c1ncnc2cc(S(=O)(=O)Nc3ncccn3)ccc12            7.07
 8  COc1cc(-c2cccc(F)c2)c(Cl)cc1-c1ncnc2cc(S(=O)(=O)Nc3ccc(F)cn3)ccc12            6.66
 9  COc1cc(-c2cccc(F)c2)c(Cl)cc1-c1c(O)cnc2cc(S(=O)(=O)Nc3ccon3)ccc12 (atropisomer, axis not shown; (M)) [Example 337]            7.15
10  COc1cc(-c2cccc(Cl)c2)cc(F)c1-c1nccc2cc(S(=O)(=O)Nc3ccon3)ccc12            6.53
11  COc1cc(-c2cccc(F)c2)c(Cl)cc1-c1c(C)nnc2cc(S(=O)(=O)Nc3ccon3)ccc12 (atropisomer, axis not shown; (M)) [Example 441]            7.28
12  COc1cc(-c2cc(Cl)ccc2F)c(C)cc1-c1ncnc2cc(S(=O)(=O)Nc3ccon3)ccc12            7.25
13  COc1cc(-c2cc(F)cc(C3CC3)c2)c(C)cc1-c1ncnc2cc(S(=O)(=O)Nc3ccon3)ccc12            7.21
14  COc1cc(-c2cc(F)ccc2F)c(C)cc1-c1ncnc2cc(S(=O)(=O)Nc3ccon3)ccc12            7.03
15  COc1cc(-c2cccc(C(F)(F)F)c2)c(F)cc1-c1c2ccc(S(=O)(=O)Nc3ccon3)cc2cc(=O)n1C [Example 546]            7.54
16  COc1cc(-c2ccc(Cl)c(C)c2)c(F)cc1-c1c[nH]c(=O)c2cc(S(=O)(=O)Nc3ccon3)ccc12            6.74
17  COc1cc(-c2cccc(F)c2)c(Cl)cc1-c1c(C)ncc2cc(S(=O)(=O)Nc3ccon3)ccc12 (atropisomer, axis not shown; (M)) [Example 317]            7.14
18  COc1cc(-c2cccc(F)c2)c(Cl)cc1-c1c(OC)ncc2cc(S(=O)(=O)Nc3ccon3)ccc12            6.21
19  COc1cc(-c2cccc(F)c2)c(Cl)cc1-c1c(C#N)cnc2cc(S(=O)(=O)Nc3ccon3)ccc12 (atropisomer, axis not shown; (P)) [Example 335]            6.95
20  COc1cc(-c2cccc(F)c2)c(Cl)cc1-c1ncnc2cc(S(=O)(=O)Nc3ccsn3)ccc12            6.43
21  COc1cc(-c2cc(F)cc(Cl)c2)c(F)cc1-c1[nH]c(=O)cc2cc(S(=O)(=O)Nc3ccon3)ccc12            7.70
22  COc1cc(-c2cc(F)cc(Cl)c2)c(F)cc1-c1c[nH]c(=O)c2cc(S(=O)(=O)Nc3ccon3)ccc12            7.11
23  COc1cc(-c2cc(F)cc(Cl)c2)c(F)cc1-c1c(=O)[nH]cc2cc(S(=O)(=O)Nc3ccon3)ccc12            8.22
24  COc1cc(-c2cccc(F)c2)c(Cl)cc1-c1c(=O)n(C)cc2cc(S(=O)(=O)Nc3ccon3)ccc12            7.41
25  COc1cc(-c2cccc(F)c2)c(Cl)cc1-c1c(=O)[nH]cc2cc(S(=O)(=O)Nc3ccon3)ccc12            7.57
26  COc1cc(-c2cc(F)cc(Cl)c2)c(F)cc1-c1cn(C)c(=O)c2cc(S(=O)(=O)Nc3ccon3)ccc12            7.32
27  COc1cc(-c2cccc(Cl)c2)c(Cl)cc1-c1ncnc2cc(S(=O)(=O)Nc3ncccn3)ccc12            7.14
